Test System: Bcr/Abl fusion protein (Homo sapiens, UniProt P00519)
Sequence (P00519 whole entry, the tested form may be a part): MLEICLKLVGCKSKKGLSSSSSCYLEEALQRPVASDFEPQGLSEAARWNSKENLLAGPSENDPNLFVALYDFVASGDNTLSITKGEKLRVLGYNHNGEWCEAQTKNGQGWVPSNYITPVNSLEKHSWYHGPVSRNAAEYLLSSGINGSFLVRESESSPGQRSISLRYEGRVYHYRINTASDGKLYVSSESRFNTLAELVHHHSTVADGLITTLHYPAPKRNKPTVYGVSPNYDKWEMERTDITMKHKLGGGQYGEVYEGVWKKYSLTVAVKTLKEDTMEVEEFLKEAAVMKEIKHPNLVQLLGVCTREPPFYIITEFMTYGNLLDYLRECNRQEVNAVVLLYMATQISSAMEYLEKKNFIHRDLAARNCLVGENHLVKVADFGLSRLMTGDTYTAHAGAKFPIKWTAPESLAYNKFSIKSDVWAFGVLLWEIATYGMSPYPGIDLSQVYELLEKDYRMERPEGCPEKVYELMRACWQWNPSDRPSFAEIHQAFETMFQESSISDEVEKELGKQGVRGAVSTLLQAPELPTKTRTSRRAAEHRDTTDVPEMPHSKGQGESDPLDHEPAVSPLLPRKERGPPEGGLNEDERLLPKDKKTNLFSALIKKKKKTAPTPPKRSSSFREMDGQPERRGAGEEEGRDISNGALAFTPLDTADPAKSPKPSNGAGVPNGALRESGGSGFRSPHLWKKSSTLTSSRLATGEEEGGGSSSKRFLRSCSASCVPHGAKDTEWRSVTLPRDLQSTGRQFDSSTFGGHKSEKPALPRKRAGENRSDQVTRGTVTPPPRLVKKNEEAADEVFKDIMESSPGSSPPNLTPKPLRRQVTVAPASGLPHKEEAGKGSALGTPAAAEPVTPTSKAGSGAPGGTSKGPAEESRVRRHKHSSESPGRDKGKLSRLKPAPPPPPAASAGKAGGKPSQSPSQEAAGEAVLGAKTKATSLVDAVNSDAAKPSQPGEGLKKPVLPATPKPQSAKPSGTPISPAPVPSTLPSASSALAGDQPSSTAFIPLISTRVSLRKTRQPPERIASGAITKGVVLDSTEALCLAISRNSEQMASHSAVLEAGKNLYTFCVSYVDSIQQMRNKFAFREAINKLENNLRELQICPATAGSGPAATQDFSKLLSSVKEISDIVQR
Sequence (P11274 whole entry, further chain, the tested form may be a part): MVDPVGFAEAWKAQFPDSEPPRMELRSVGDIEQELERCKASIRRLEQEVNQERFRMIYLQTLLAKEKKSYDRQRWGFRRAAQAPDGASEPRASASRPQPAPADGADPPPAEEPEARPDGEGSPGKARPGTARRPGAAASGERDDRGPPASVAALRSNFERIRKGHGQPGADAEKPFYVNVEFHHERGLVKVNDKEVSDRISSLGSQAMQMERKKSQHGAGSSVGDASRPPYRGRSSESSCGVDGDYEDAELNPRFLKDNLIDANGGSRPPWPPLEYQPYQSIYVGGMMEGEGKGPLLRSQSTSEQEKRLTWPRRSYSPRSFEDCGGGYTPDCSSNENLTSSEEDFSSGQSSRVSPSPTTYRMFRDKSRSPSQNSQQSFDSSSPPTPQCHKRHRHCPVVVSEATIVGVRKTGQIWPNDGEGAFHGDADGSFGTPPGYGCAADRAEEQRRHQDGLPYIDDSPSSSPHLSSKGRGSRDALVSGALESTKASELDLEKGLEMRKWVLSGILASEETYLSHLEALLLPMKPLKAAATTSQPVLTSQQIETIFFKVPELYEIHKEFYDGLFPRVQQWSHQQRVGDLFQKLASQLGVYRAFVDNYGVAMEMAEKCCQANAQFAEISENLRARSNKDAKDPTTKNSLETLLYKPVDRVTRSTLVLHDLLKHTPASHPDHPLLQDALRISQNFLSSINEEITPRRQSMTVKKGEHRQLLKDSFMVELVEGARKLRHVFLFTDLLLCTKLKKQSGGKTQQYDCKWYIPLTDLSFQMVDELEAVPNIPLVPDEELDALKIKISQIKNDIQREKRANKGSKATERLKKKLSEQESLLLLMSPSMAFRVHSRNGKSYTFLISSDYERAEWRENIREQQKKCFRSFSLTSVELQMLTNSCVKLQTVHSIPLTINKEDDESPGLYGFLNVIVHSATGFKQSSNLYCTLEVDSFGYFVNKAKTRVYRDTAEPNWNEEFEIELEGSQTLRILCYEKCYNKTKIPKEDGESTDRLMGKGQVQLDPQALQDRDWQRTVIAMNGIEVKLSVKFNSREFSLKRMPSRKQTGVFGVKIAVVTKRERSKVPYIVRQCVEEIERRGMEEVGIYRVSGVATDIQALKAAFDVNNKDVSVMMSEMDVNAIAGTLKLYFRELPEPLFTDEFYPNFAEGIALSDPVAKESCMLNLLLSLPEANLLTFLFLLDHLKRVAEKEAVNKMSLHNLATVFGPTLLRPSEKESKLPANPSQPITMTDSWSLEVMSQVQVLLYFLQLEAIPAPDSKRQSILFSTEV
Method Summary: Inhibition of wild-type Bcr-Abl (unknown origin) in presence of ATP
pIC50: −log10 of the molar value.
Readout Label: pIC50

Some solved entries appear below for comparison.
INSERT INTO results (compound_smiles, measured_result) VALUES
  ('COc1cc(Nc2c(C#N)cnc3cc(OC)c(OC)cc23)c(Cl)cc1Cl', 9.12),
  ('COc1cc(Nc2c(C#N)cnc3cc(OCCCN4CCOCC4)c(OC)cc23)c(Cl)cc1Cl', 9.38),
  ('C=CC(=O)N(c1cc(OC)c(Cl)cc1Cl)c1c(C#N)cnc2cc(OCCCN3CCN(C)CC3)c(OC)cc12', 7.25),
  ('COc1ccc(Cl)c(Nc2c(C#N)cnc3cc(OCCCN4CCCCC4)c(OC)cc23)c1', 9.52),
  ('C=CC(=O)N(c1ccc(Cl)cc1Cl)c1c(C#N)cnc2cc(OC)c(OC)cc12', 5.88),
  ('COc1ccc(Cl)c(Nc2c(C#N)cnc3cc(OCCCN4CCOCC4)c(OC)cc23)c1', 9.64),
  ('C=CC(=O)N(c1cc(OC)c(Cl)cc1Cl)c1c(C#N)cnc2cc(OCCCN3CCCCC3)c(OC)cc12', 6.67),
  ('COc1ccc(Cl)c(Nc2c(C#N)cnc3cc(OCCCN4CCN(C)CC4)c(OC)cc23)c1', 10.22);

1. C=CC(=O)N(c1cc(OC)c(Cl)cc1Cl)c1c(C#N)cnc2cc(OCCCN3CCOCC3)c(OC)cc12
2. C=CC(=O)N(c1cc(OC)ccc1Cl)c1c(C#N)cnc2cc(OC)c(OC)cc12
3. COc1ccc(Cl)c(Nc2c(C#N)cnc3cc(OC)c(OC)cc23)c1
4. COc1cc(N(C(C)=O)c2c(C#N)cnc3cc(OCCCN4CCCCC4)c(OC)cc23)c(Cl)cc1Cl
5. COc1cc2ncc(C#N)c(Nc3ccc(Cl)cc3Cl)c2cc1OC
**Q:** // sort entries: pIC50, high to low Please respond by ranking the labels in the order requested.
**A:** 3, 5, 1, 2, 4
(3: 9.19, 5: 8.36, 1: 6.77, 2: 6.24, 4: 5.96)

1. C=CC(=O)N(c1cc(OC)ccc1Cl)c1c(C#N)cnc2cc(OCCCN3CCN(C)CC3)c(OC)cc12
2. C=CC(=O)N(c1cc(OC)ccc1Cl)c1c(C#N)cnc2cc(OCCCN3CCCCC3)c(OC)cc12
3. COc1cc2ncc(C#N)c(Nc3ccc(Br)cc3Br)c2cc1OC
4. C=CC(=O)N(c1cc(OC)c(Cl)cc1Cl)c1c(C#N)cnc2cc(OC)c(OC)cc12
**Q:** Provide the items ranked by increasing pIC50. Please respond by ranking the labels in the order requested.
**A:** 3, 4, 1, 2
(3: 5.27, 4: 6.05, 1: 6.73, 2: 6.95)

I. C=CC(=O)N(c1cc(OC)ccc1Cl)c1c(C#N)cnc2cc(OCCCN3CCOCC3)c(OC)cc12
II. COc1cc(Nc2c(C#N)cnc3cc(OCCCN4CCCCC4)c(OC)cc23)c(Cl)cc1Cl
**Q:** Of I and II , whose reported pIC50 is numerically smaller? # answer = label of selected item
**A:** I
